Biological target: 5-hydroxytryptamine receptor 2B (Homo sapiens, UniProt P41595); also: in other assays of this panel Not Active means under 50% inhibition at 10 µM
Sequence (P41595 whole entry): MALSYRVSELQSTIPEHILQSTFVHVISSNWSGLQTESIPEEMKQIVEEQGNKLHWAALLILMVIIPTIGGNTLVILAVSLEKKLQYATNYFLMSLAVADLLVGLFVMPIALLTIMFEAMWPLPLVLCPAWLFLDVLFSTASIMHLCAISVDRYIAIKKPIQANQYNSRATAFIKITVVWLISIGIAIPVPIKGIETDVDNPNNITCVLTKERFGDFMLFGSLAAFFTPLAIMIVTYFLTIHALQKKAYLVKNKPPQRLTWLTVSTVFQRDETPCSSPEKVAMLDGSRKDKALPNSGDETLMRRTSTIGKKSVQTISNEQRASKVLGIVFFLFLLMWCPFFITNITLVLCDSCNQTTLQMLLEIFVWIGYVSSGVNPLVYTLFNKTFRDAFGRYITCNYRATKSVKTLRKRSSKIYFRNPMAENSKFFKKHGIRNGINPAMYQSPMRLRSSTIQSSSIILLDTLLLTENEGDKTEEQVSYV
Assay type: cell membranes, CHO-K1, Membrane
Settings: read-out: IC50
measure: pIC50
Schema: pIC50 number; meaning minus log10 of the concentration expressed in molar units.

| compound | measurement-target | pIC50 |
| --- | --- | --- |
| CN(C)CCCC1(c2ccc(F)cc2)OCc2cc(C#N)ccc21 (stereo unspecified) | 5-hydroxytryptamine receptor 2B (Homo sapiens, UniProt P41595) | 5.74 |
| CC[C@@]1(O)C(=O)OCc2c1cc1n(c2=O)Cc2cc3ccccc3nc2-1 | 5-hydroxytryptamine receptor 2B (Homo sapiens, UniProt P41595) | 6.01 |

Prompt line: Requested field: pIC50. Item: `Cc1ccccc1N1CCN(CCc2nnc3n2CCCC3)CC1`
Response line: 5.98

Prompt line: Requested field: pIC50. Item: `CNCCC=C1c2ccccc2CCc2ccccc21`
Response line: 6.87

Prompt line: Requested field: pIC50. Item: `Clc1ccccc1C(c1ccccc1)(c1ccccc1)n1ccnc1`
Response line: 4.94

Prompt line: Requested field: pIC50. Item: `CN(C)CCCN1c2ccccc2CCc2ccc(Cl)cc21`
Response line: 6.62

Prompt line: Requested field: pIC50. Item: CC(CCc1ccccc1)NCC(O)c1ccc(O)c(C(N)=O)c1 (stereo unspecified)
Response line: 5.52

Prompt line: Requested field: pIC50. Item: `CC1=C(/C=C/C(C)=C/C=C/C(C)=C\C(=O)O)C(C)(C)CCC1`
Response line: 6.07

Prompt line: Requested field: pIC50. Item: `CN1C[C@H](C(=O)N[C@]2(C)O[C@@]3(O)[C@@H]4CCCN4C(=O)[C@H](Cc4ccccc4)N3C2=O)C=C2c3cccc4[nH]cc(c34)C[C@H]21`
Response line: 8.46

Prompt line: Requested field: pIC50. Item: `COc1ccc(CN(CCN(C)C)c2ccccn2)cc1`
Response line: 5.55

Prompt line: Requested field: pIC50. Item: Clc1ccc(C(c2ccccc2Cl)C(Cl)Cl)cc1 (stereo unspecified)
Response line: 5.32

###

Molecular target: C-C chemokine receptor type 2 (Homo sapiens); also: in other assays of this panel Not Active means under 50% inhibition at 10 µM
Sequence (P41597 whole entry): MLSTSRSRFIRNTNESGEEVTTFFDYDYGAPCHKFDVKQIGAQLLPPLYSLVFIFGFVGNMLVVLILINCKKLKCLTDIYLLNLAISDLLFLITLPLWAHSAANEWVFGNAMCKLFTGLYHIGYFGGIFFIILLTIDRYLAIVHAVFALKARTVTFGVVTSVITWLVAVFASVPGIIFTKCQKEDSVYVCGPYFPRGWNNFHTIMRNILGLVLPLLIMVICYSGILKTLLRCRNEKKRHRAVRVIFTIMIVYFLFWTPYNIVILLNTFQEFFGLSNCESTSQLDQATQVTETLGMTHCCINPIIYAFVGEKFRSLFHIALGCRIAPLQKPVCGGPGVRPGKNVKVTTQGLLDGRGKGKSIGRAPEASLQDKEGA
Assay type: cell membranes, CHO-K1, Membrane
Settings: cho-k1

| substance | Ki |
| --- | --- |
| IVERMECTIN | Not Active |
| OXALIPLATIN | Not Active |
| CARBOPLATIN | Not Active |
| GOLD SODIUM THIOMALATE | Not Active |

###

Molecular target: 5-hydroxytryptamine receptor 4 (Cavia porcellus, UniProt O70528); also: in other assays of this panel Not Active means under 50% inhibition at 10 µM
Sequence (O70528 whole entry): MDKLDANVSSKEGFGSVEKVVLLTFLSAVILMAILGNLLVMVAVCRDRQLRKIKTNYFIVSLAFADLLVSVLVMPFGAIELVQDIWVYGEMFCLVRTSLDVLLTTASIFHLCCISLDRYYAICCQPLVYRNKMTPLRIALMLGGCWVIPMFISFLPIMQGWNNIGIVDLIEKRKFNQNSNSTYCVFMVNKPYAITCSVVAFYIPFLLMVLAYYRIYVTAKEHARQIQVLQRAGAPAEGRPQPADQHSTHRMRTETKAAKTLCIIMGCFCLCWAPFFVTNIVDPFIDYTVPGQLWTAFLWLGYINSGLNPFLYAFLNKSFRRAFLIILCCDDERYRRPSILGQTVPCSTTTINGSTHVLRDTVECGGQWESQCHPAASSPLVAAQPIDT
Type: cell membranes, Dunkin-Hartley, Striatum, Membrane
Conditions: read-out: IC50
measure: IC50 (nM)
A number alone suffices; assume nM.

| structure-string | IC50, nM |
| --- | --- |
| CN1C[C@H](C(=O)N[C@]2(C)O[C@@]3(O)[C@@H]4CCCN4C(=O)[C@H](Cc4ccccc4)N3C2=O)C=C2c3cccc4[nH]cc(c34)C[C@H]21 | 1580 |

Shift focus to the following entry.
Prompt line: Requested field: IC50. Item: `CN1[C@@H]2CC[C@H]1C[C@@H](OC(=O)c1c[nH]c3ccccc13)C2`
Response line: 324

###

Molecular target: Muscarinic acetylcholine receptor M5 (Homo sapiens, UniProt P08912); also: in other assays of this panel Not Active means under 50% inhibition at 10 µM
Sequence (P08912 whole entry): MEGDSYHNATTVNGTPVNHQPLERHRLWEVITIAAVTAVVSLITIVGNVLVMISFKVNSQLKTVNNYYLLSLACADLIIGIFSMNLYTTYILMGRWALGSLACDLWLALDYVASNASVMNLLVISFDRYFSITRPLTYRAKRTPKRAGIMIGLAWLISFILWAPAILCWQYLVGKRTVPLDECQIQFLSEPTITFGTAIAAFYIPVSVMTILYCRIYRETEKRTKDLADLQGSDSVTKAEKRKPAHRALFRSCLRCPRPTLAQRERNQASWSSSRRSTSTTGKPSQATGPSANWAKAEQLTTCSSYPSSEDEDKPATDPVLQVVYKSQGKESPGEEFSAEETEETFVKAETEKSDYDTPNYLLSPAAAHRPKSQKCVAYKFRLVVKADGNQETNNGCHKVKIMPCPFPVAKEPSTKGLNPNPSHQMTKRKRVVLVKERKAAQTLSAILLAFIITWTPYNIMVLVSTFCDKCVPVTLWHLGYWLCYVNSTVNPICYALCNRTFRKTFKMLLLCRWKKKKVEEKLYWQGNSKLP
Type: cell membranes, CHO-K1, Membrane
Conditions: read-out: IC50
pIC50: −log10 of the molar value.
Could you label it Met if measured pIC50 is 7 or higher, and Not met otherwise?

| molecule | measurement-target | label-value |
| --- | --- | --- |
| COc1ccc(CCN2CCC(Nc3nc4ccccc4n3Cc3ccc(F)cc3)CC2)cc1 [ASTEMIZOLE] | Muscarinic acetylcholine receptor M5 (Homo sapiens, UniProt P08912) | Not met |

Prompt line: Say whether CN1[C@@H]2CC[C@H]1C[C@@H](OC(=O)c1c[nH]c3ccccc13)C2 [TROPISETRON] shows pIC50 of 7 or more.
Response line: Not met

Prompt line: Say whether CN(C)CCCN1c2ccccc2CCc2ccc(Cl)cc21 [CLOMIPRAMINE] shows pIC50 of 7 or more.
Response line: Met

Prompt line: Say whether CN1CCN2c3ccccc3Cc3ccccc3C2C1 (stereo not given) [MIANSERIN] shows pIC50 of 7 or more.
Response line: Not met

Prompt line: Say whether CNCCC=C1c2ccccc2CCc2ccccc21 [NORTRIPTYLINE] shows pIC50 of 7 or more.
Response line: Met

###

Target: Platelet-activating factor receptor (Homo sapiens, UniProt P25105); also: in other assays of this panel Not Active means under 50% inhibition at 10 µM
Sequence (P25105 whole entry): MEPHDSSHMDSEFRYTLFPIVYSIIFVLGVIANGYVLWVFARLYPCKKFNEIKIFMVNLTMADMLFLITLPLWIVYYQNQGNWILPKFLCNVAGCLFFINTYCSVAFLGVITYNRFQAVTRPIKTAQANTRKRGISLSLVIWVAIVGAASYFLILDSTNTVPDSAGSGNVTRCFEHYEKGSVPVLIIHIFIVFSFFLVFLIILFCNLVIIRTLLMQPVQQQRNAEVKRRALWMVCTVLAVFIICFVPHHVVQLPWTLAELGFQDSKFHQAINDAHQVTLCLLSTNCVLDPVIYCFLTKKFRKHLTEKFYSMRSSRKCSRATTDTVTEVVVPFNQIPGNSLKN
Assay: biochemical
Assay type: tissue-based
Settings: platelet
measure: IC50

| compound | IC50 |
| --- | --- |
| Nc1ccc(S(N)(=O)=O)cc1 [SULFANILAMIDE] | Not Active |
| NS(=O)(=O)c1cc2c(cc1Cl)NCNS2(=O)=O [HYDROCHLOROTHIAZIDE] | Not Active |
| CN1CCC[C@H]1c1cccnc1 | Not Active |
| CC1=C(/C=C/C(C)=C/C=C/C(C)=C\C(=O)O)C(C)(C)CCC1 | Not Active |
| CC[C@H]1OC(=O)[C@H](C)[C@@H](O[C@H]2C[C@@](C)(OC)[C@@H](O)[C@H](C)O2)[C@H](C)[C@@H](O[C@@H]2O[C@H](C)C[C@H](N(C)C)[C@H]2O)[C@](C)(O)C[C@@H](C)/C(=N\OCOCCOC)[C@H](C)[C@@H](O)[C@]1(C)O | Not Active |

Prompt line: Requested field: IC50. Item: `COC(=O)[C@H](c1ccccc1Cl)N1CCc2sccc2C1`
Response line: Not Active

Prompt line: Requested field: IC50. Item: `C/C=C1\[C@H]2C=C(C)C[C@]1(N)c1ccc(=O)[nH]c1C2`
Response line: Not Active

Prompt line: Requested field: IC50. Item: CN1CCN2c3ccccc3Cc3ccccc3C2C1 (stereo not given)
Response line: Not Active

###

Molecular target: 5-hydroxytryptamine receptor 2C (Homo sapiens, UniProt P28335)
Sequence (P28335 whole entry): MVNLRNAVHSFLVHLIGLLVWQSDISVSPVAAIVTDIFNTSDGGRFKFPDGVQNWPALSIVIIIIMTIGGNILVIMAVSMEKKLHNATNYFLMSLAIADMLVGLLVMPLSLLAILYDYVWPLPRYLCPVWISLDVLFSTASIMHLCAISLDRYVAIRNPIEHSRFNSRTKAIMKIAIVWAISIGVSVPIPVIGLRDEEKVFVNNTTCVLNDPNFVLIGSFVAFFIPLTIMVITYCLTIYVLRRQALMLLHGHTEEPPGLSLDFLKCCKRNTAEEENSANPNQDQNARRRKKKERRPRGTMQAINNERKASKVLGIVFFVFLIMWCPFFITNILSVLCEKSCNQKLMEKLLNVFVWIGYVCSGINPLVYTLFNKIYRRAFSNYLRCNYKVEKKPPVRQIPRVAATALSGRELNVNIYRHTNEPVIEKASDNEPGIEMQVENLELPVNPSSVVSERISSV
Test: DRUGMATRIX: Serotonin (5-Hydroxytryptamine) 5-HT2C radioligand binding (ligand: [3H] Mesulergine)
Assay type: cell membranes, CHO-K1, Membrane
Settings: Not Active = under 50% inhibition at 10 µM; read-out: Ki
For each record, check the reported Ki: if it is below 300 nM write label 1, else write label 0.

// below: answered compounds
| structure-string | label-value |
| --- | --- |
| COc1ccc(CN(CCN(C)C)c2ccccn2)cc1 | label 0 |
| CCCCCCCCCc1ccc(O)cc1 | label 0 |
| COC(=O)C1=C(C)NC(C)=C(C(=O)OC)C1c1ccccc1[N+](=O)[O-] | label 0 |
| CN(C)CCCN1c2ccccc2CCc2ccc(Cl)cc21 | label 1 |
| CN1C[C@H](C(=O)N[C@]2(C)O[C@@]3(O)[C@@H]4CCCN4C(=O)[C@H](Cc4ccccc4)N3C2=O)C=C2c3cccc4[nH]cc(c34)C[C@H]21 | label 1 |

Prompt line: Item `Cc1ccccc1N1CCN(CCc2nnc3n2CCCC3)CC1` : Ki beneath 300 nM, strictly?
Response line: label 0

Prompt line: Item `Oc1c(Cl)cc(Cl)cc1Sc1cc(Cl)cc(Cl)c1O` : Ki beneath 300 nM, strictly?
Response line: label 0

Prompt line: Item `Clc1ccccc1C(c1ccccc1)(c1ccccc1)n1ccnc1` : Ki beneath 300 nM, strictly?
Response line: label 0

###

Target: Cytochrome P450 2C19 (Homo sapiens, UniProt P33261); also: in other assays of this panel Not Active means under 50% inhibition at 10 µM
Sequence (P33261 whole entry): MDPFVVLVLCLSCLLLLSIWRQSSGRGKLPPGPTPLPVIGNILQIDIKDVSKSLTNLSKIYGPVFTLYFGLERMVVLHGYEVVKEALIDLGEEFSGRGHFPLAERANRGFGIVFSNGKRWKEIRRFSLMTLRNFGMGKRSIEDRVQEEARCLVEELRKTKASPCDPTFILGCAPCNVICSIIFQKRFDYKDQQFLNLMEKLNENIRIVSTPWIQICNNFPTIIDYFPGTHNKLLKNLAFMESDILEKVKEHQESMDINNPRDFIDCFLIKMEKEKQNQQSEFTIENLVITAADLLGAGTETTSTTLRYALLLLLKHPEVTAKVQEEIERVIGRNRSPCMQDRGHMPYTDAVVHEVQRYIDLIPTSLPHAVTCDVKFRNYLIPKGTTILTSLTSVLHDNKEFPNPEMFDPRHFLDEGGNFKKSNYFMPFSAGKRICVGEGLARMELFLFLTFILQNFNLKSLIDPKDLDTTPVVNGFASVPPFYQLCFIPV
Details: bti-tn-5b1-4
measure: IC50

| substance | measure | result |
| --- | --- | --- |
| IVERMECTIN | IC50 | Not Active |
| CISPLATIN | IC50 | Not Active |
| OXALIPLATIN | IC50 | Not Active |
| CARBOPLATIN | IC50 | Not Active |

Shift focus to the following entry.
Prompt line: Requested field: IC50. Item: GOLD SODIUM THIOMALATE
Response line: Not Active
